assay system: Trk A (Homo sapiens)
Sequence (P04629 33-796): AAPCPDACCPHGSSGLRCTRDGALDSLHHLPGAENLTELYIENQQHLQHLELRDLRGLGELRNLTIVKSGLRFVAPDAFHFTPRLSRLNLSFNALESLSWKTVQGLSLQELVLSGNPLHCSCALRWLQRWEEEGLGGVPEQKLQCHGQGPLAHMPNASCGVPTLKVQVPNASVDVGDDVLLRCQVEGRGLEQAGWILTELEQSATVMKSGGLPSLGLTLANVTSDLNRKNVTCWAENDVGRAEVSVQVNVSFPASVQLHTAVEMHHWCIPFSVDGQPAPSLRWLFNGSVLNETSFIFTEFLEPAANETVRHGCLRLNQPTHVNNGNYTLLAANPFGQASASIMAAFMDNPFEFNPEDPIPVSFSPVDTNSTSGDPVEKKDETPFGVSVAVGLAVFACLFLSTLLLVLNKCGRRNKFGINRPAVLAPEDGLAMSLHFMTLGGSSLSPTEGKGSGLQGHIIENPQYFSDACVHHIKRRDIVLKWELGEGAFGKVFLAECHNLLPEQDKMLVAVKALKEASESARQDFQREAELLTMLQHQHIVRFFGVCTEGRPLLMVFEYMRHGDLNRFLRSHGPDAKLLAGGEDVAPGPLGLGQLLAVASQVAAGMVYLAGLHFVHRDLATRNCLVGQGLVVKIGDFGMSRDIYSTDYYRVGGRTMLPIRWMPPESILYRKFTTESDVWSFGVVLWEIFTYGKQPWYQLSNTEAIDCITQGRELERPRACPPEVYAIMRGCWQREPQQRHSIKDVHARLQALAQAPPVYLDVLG
assay method text: HotSpot kinase assay: Trk A
Format: biochemical
reported conditions: 100 nM compound, read-out: % Enzyme Inhibition @ 100 nM Trk A
assay metric: inhibition at 0.1 µM

Query block: Find the measured inhibition at 0.1 µM: item CN(C)C(=O)C1CCCN1c1nc2c(c(Nc3cc(C4CCCCC4)[nH]n3)n1)CCC2 (stereo not shown) [Compound 114b] , target or system Trk A (Homo sapiens).
Result block: < 39%

Query block: Another compound: O=C(C1CCCN1c1nc2c(c(Nc3cc(C4CCCC4)[nH]n3)n1)CCC2)N1CCCCC1 (stereo not shown) [Compound 111a]
Result block: 40 to 59%

Query block: Note, next up: CN(C)C(=O)C1CC(O)CN1c1nc2c(c(Nc3cc(C4CCCC4)[nH]n3)n1)CCC2 (stereo not shown) [Compound 110b]
Result block: < 39%

Query block: Same question, CCN(CC)C(=O)C1CCCN1c1nc2c(c(Nc3cc(C4CCCC4)[nH]n3)n1)CCC2 (stereo not shown) [Compound 116a] this time
Result block: < 39%

Cited source for all entries: patent US9499519B2
